Reference source: patent US12595253B2

# assay_target: JAK2V617F (Homo sapiens, UniProt O60674, V617F)
# Sequence (O60674 whole entry V617F): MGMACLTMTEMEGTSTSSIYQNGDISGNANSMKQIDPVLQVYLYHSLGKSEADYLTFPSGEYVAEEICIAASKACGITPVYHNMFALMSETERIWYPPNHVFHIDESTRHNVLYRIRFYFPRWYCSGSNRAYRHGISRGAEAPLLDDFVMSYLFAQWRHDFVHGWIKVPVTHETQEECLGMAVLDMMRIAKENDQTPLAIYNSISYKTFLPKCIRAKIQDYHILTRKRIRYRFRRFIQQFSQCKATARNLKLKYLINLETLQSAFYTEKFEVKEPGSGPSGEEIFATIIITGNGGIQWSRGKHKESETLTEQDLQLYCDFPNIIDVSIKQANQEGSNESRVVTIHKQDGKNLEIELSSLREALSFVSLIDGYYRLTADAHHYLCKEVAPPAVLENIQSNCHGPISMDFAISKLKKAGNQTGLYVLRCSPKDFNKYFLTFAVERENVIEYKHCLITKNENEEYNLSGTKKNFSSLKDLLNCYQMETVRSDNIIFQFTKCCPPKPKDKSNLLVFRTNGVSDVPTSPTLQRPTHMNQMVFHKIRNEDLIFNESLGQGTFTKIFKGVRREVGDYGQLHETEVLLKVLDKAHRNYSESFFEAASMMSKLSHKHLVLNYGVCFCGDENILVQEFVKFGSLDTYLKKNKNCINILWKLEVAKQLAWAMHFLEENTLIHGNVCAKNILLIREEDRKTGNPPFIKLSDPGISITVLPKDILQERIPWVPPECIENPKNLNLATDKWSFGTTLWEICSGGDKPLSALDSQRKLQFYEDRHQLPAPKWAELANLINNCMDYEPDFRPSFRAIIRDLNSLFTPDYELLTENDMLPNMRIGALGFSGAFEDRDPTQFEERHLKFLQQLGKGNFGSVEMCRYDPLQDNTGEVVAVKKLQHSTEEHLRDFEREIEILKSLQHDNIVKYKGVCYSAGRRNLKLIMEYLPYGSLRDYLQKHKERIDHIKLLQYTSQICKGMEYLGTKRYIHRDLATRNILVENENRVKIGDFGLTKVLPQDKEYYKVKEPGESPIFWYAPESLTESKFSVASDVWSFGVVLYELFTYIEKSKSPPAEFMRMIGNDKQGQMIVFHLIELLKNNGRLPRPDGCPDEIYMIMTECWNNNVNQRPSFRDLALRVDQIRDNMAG
# assay_protocol: JAK2V617F microfluidic kinase assay (Caliper EZ Reader II, FAM labeled peptide substrate)
# assay_setup: JAK2V617F 2.5 nM, 1 mM ATP
# Description: Compounds were tested against JAK1, JAK2, JAK2V617F and TYK2. Assay Formats: JAK activity was determined in the reaction buffer 50 mM HEPES, 0.01% Brij35, 10 mM MgCl2, 2 mM DTT by a microfluidic assay. The phosphorylation of a FAM labeled peptide substrate was monitored in the Caliper EZ Reader II (Perkin Elmer). The assay condition for each batch of enzyme (Carna Biosciences) was optimized to obtain 10% conversion rate of peptide substrate. […]
Under this convention, Y denotes IC50 strictly below 20 nM and N denotes IC50 at or above 20 nM.

Previously resolved entries follow.
Q: Just wondering, is IC50 of CC[C@@H](C#N)NC(=O)c1ccc(-c2nc(Nc3cnn(C4CC4)c3)ncc2Cl)cc1 below 20 nM?
Ans: N

Q: Quick check: IC50 of CO[C@H]1CC[C@H](n2cc(Nc3ncc(C)c(-c4ccc(C(=O)N[C@@H](C)C#N)cc4)n3)cn2)CC1 under 20 nM?
Ans: Y

Q: For Cc1cnc(Nc2cnn(C3CCC(F)(F)CC3)c2)nc1-c1ccc(C(=O)NCC#N)cc1 , is the recorded IC50 below the cut-off of 20 nM?
Ans: Y

Q: Does this compound meet the criterion IC50 < 20 nM? CC[C@@H](C#N)NC(=O)c1ccc(-c2nc(Nc3cnn(C4CC4)c3)ncc2C)cc1
Ans: N

Let's switch to this compound now.
Q: Record Cc1cnc(Nc2cnn(C3CC3)c2)nc1-c1ccc(C(=O)N[C@@H](C)C#N)c(F)c1 : is its IC50 strictly below 20 nM?
Ans: N
